# Test system: smooth muscle strips isolated from rabbit small intestine
# protocol.notes: Induction of in vitro rabbit duodenal smooth muscle contraction
# condition.summary: relative to erythromycin A = 1.0
Each item that follows carries a reported Relative Potency.

compound | system.tested | Relative Potency
CC[C@H]1OC(=O)[C@H](C)[C@@H](O[C@H]2C[C@@](C)(OC)C[C@H](C)O2)[C@H](C)[C@@H](O[C@@H]2O[C@H](C)C[C@H](NC)[C@H]2O)[C@@]2(C)C[C@@H](C)C(O2)[C@H](C)[C@@H](O)[C@]1(C)O [Example 14] | smooth muscle strips isolated from rabbit small intestine | 20
C#CC[N+](C)(C)[C@H]1C[C@@H](C)O[C@@H](O[C@@H]2[C@@H](C)[C@H](O[C@H]3C[C@@](C)(OC)C[C@H](C)O3)[C@@H](C)C(=O)O[C@H](CC)[C@H](C)[C@H](O)[C@@H](C)C3=C(C)C[C@@]2(C)O3)[C@@H]1O [Example 8] | smooth muscle strips isolated from rabbit small intestine | 28
CC[C@H]1OC(=O)[C@H](C)[C@@H](O[C@H]2C[C@@](C)(OC)C[C@H](C)O2)[C@H](C)[C@@H](O[C@@H]2O[C@H](C)C[C@H](N(C)CC)[C@H]2O)[C@@]2(C)C[C@H](C)C(O2)[C@H](C)[C@@H](O)[C@]1(C)O [Example 11] | smooth muscle strips isolated from rabbit small intestine | 490
